B1: TPR t1 (parent)
chain: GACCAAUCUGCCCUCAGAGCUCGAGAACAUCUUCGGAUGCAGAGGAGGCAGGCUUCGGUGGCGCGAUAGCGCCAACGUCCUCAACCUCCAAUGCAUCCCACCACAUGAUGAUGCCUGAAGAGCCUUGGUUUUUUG

- Variants of: B1
- MEASUREMENT_NOTES: polymerase ribozyme fitness, log enrichment relative to wild type (log ratio); higher = more active; in vitro selection for triplet polymerase activity
Please enter y where polymerase ribozyme fitness (log ratio) is greater than or equal to -2, and n where it is lower.

Use the examples below as a reference point.
G19A U106A | n
G60U C94A | y

Given G17U G47A G71U , state whether its polymerase ribozyme fitness (log ratio) is at least -2. n

Given C13A G42A G77U U131C , state whether its polymerase ribozyme fitness (log ratio) is at least -2. n

Given C56U C115A U133C , state whether its polymerase ribozyme fitness (log ratio) is at least -2. y

Given C11A G117U , state whether its polymerase ribozyme fitness (log ratio) is at least -2. n

Given G10U U30C A37G C56U C73U , state whether its polymerase ribozyme fitness (log ratio) is at least -2. n

Given G36A G45C G58C C64G G117U , state whether its polymerase ribozyme fitness (log ratio) is at least -2. n

Data origin: the RNAGym collection of RNA variant scans (doi:10.1073/pnas.2313332121)
